- assay summary: in vitro
- Assay type: in vitro ADME, rat
- measurement parameters: rat, plasma, Plasma protein binding

| compound | fraction unbound at 30 min, 5 µg/mL |
| --- | --- |
| C[C@@H]1CCN(C(=O)CC#N)C[C@@H]1N(C)c1ncnc2[nH]ccc12 | 0.408 |

###

- assay summary: Pharmacokinetics after oral administration of 20 mg/kg to CON and PHL rats
- Assay type: in vivo, Sprague–Dawley rats
- measurement parameters: Sprague-Dawley, rat, plasma, po, 20 mg/kg, CON rats (n = 6)
quantity: Cmax (ng/mL)

| compound | quantity | measured result |
| --- | --- | --- |
| C[C@@H]1CCN(C(=O)CC#N)C[C@@H]1N(C)c1ncnc2[nH]ccc12 | Cmax | 2960 |

###

- assay summary: in vivo
- measurement parameters: Sprague-Dawley, rat, plasma, iv, 10 mg/kg, Vss (apparent volume of distribution at steady state), CON rats (n = 7)
quantity: Vd (L/kg)

| compound | quantity | measured result |
| --- | --- | --- |
| C[C@@H]1CCN(C(=O)CC#N)C[C@@H]1N(C)c1ncnc2[nH]ccc12 | Vd | 0.847 |

###

- assay summary: in vivo
- measurement parameters: Sprague-Dawley, rat, plasma, iv, 10 mg/kg, Terminal half-life, CON rats (n = 7)
quantity: half-life (min)

| molecule | units | measured result |
| --- | --- | --- |
| C[C@@H]1CCN(C(=O)CC#N)C[C@@H]1N(C)c1ncnc2[nH]ccc12 [tofacitinib, Tofacitinib] | min | 29.6 |

###

- assay summary: in vivo
- measurement parameters: Sprague-Dawley, rat, plasma, iv, 10 mg/kg, k (elimination rate constant), CON rats (n = 7)

| compound | units | k el |
| --- | --- | --- |
| C[C@@H]1CCN(C(=O)CC#N)C[C@@H]1N(C)c1ncnc2[nH]ccc12 | s⁻¹ | 0.000398 |

###

- assay summary: Pharmacokinetics after oral administration of 20 mg/kg to CON and PHL rats
- Format: in vivo, Sprague–Dawley rats
- measurement parameters: Sprague-Dawley, rat, plasma, po, 20 mg/kg, PHL rats (n = 7), read-out: Terminal half-life

| compound | units | half-life |
| --- | --- | --- |
| C[C@@H]1CCN(C(=O)CC#N)C[C@@H]1N(C)c1ncnc2[nH]ccc12 [tofacitinib, Tofacitinib] | min | 84.3 |

###

- assay summary: in vivo
- measurement parameters: Sprague-Dawley, rat, plasma, iv, 10 mg/kg, Terminal half-life, PHL rats (n = 6)

| compound | half-life (min) |
| --- | --- |
| C[C@@H]1CCN(C(=O)CC#N)C[C@@H]1N(C)c1ncnc2[nH]ccc12 | 34.5 |

###

- assay summary: in vivo
- measurement parameters: Sprague-Dawley, rat, plasma, iv, 10 mg/kg, MRT (mean residence time), CON rats (n = 7)
quantity: MRT (min)

| compound | quantity | measured result |
| --- | --- | --- |
| C[C@@H]1CCN(C(=O)CC#N)C[C@@H]1N(C)c1ncnc2[nH]ccc12 | MRT | 22.6 |

###

- assay summary: in vitro
- Type: in vitro ADME, rat
- measurement parameters: pH 7.4
quantity: recovery at 30 min, 5 µg/mL (%)

| molecule | measured result |
| --- | --- |
| C[C@@H]1CCN(C(=O)CC#N)C[C@@H]1N(C)c1ncnc2[nH]ccc12 [tofacitinib, Tofacitinib] | 100 |
